The reader will find reported IC50 values listed item by item below.
# targetEntity: hPAD4 (Homo sapiens)
# Sequence (Q9UM07 whole entry): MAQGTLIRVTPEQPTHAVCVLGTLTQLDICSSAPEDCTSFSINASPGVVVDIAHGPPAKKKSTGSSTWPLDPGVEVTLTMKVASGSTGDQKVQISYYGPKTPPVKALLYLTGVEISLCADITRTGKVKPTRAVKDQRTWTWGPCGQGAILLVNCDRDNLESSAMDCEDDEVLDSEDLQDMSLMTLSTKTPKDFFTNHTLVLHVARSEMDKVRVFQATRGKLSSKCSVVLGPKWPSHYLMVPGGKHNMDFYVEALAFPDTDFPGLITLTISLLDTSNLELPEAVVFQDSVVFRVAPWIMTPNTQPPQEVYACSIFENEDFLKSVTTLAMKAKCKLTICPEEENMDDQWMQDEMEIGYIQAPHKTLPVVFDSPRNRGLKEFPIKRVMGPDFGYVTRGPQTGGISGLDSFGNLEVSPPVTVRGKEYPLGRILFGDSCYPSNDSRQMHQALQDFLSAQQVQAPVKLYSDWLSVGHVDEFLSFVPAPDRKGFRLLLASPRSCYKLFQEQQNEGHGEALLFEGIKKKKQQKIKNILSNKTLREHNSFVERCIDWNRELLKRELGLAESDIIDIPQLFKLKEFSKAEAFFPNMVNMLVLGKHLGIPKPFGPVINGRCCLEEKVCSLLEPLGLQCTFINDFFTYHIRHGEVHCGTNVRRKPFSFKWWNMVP
# protocol: hPAD4 RFMS (RapidFire mass spectrometry) PAD4 inhibition assay;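 for hPAD4 RFMS pIC50: grade E means pIC50 at most 4 and F means pIC50 4.0 to 5.0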
# Format: biochemical
# measurementParameters: hPAD4 enzyme, RFMS readout; pIC50=−log(IC50); read-out: hPAD4 RFMS pIC50 (converted)
# Protocol: Compounds of the present invention were assayed as inhibitors of PAD4 using the assay protocol described below. Compound stock solutions were stored at RT. […] Final assay conditions were as follows: Total incubation time: 65 mins at 37° C. Stop solution: 40 μl 5% TCA in ACN The compound numbers correspond to the compound numbers in Table 1. […] The term pIC50=−log(IC50). […] “NA” stands for “not assayed.”

COc1cc(C(=O)N2CC3(CCC3N)C2)cc2nc(-c3cc4cccnc4n3CC3CC3)n(C)c12 (stereo not drawn)    10 to 100 µM
COc1cc(C(=O)N2C[C@H]3CC[C@H]2[C@H]3N)cc2nc(-c3cc4cc(NCCC5CC5)ccc4n3CC3CC3)n(C)c12    < 1 µM

Ask: Give hPAD4 (Homo sapiens) IC50 for COc1cc(C(=O)N2CC3CCC2[C@@H]3N)cc2nc(-c3cc4cccnc4n3CC3CC3)n(C)c12 (stereo partly drawn)
Result: 10 to 100 µM

----------
# targetEntity: hPAD4 (Homo sapiens)
# protocol: hPAD4 RFMS (RapidFire mass spectrometry) PAD4 inhibition assay
# Type: biochemical
# measurementParameters: hPAD4 enzyme, RFMS readout; read-out: hPAD4 RFMS IC50
pIC50: −log10 of the molar value. Counter-ions that a name gives are not always drawn.
assayReadout: pIC50

Observe how each entry below is paired with its result.
Cn1c(-c2cc3cncnc3n2CC2CC2)nc2cc(C(=O)N3CCC4CCNC4C3)ccc21 (stereo not drawn)    5.00 to 5.30
CN[C@@H]1C[C@@H](O)CN(C(=O)c2cc(OC)c3c(c2)nc(-c2cc4cccnc4n2CC2CC2)n3C)C1 (racemic) [Compound I-77, hydrochloride]    < 5.00
Cn1c(-c2cc3cccnc3n2CC2CC2)nc2cc(C(=O)N3CC[C@H](F)[C@@H](N)C3)ccc21    5.00 to 5.30
COc1cc(C(=O)N2C[C@H]3CC[C@@H]2[C@@H]3N)cc2nc(-c3cc4cccnc4n3CC3CC3)n(C[C@H]3C[C@@H](OC)C3)c12    > 6.00

Ask: Quick one: pIC50 of CCn1c(-c2nc3cc(C(=O)N4CC5CCC4C5N)cc(OC)c3n2C)cc2ccc(OC)nc21 (racemic) ?
Result: > 6.00

Ask: Quick one: pIC50 of COc1cc(C(=O)N2C[C@@H]3CC[C@H]2[C@@H](N)C3)cc2nc(-c3cc4cccnc4n3CC3CC3)n(C)c12 ?
Result: < 5.00

Ask: Quick one: pIC50 of CN[C@@H]1[C@@H]2CC[C@H]1N(C(=O)c1cc(OC)c3c(c1)nc(-c1cc4cccnc4n1CC1CC1)n3C)C2 ?
Result: < 5.00

Ask: Quick one: pIC50 of COc1cc(C(=O)N2C[C@@H](N)CC[C@H]2C)cc2nc(-c3cc4cccnc4n3CC3CC3)n(C)c12 ?
Result: > 6.00

Ask: Quick one: pIC50 of Cn1c(-c2cc3cccnc3n2CC2CC2)nc2cc(C(=O)N3C4CCC(N)C3CC4)ccc21 (stereo not drawn) ?
Result: < 5.00

Ask: Quick one: pIC50 of COc1cc(C(=O)N2C[C@H]3CC[C@@H]2[C@@H]3N)cc2nc(-c3cc4cccnc4n3CC3CC3)n(C[C@@H]3CCOC3)c12 ?
Result: > 6.00

Ask: Quick one: pIC50 of CCOc1cc(C(=O)N2CC(N)CCC2C)cc2nc(-c3cc4cccnc4n3CC3CC3)n(C)c12 (stereo not drawn) ?
Result: 5.30 to 6.00

Ask: Quick one: pIC50 of COc1cc(C(=O)N2CCC(OC(F)F)C(N)C2)cc2nc(-c3cc4cccnc4n3CC3CC3)n(C)c12 (racemic) ?
Result: > 6.00

Ask: Quick one: pIC50 of COc1cc(C(=O)N2C[C@H]3CC[C@@H]2[C@@H]3N)cc2nc(-c3cc4cc(C5=Cc6ccccc6C5)ccc4n3CC3CC3)n(C)c12 ?
Result: > 6.00

Ask: Quick one: pIC50 of CCn1c(-c2nc3cc(C(=O)N4C[C@H]5CC[C@@H]4[C@@H]5N)cc(OC)c3n2[C@H]2C[C@@H](OC)C2)cc2cccnc21 ?
Result: 5.30 to 6.00

Ask: Quick one: pIC50 of COc1cc(C(=O)N2C[C@H]3CC[C@@H]2[C@@H]3N)cc2nc(-c3cc4ccc(C#N)cc4n3CC3CC3)n(C)c12 ?
Result: > 6.00

Ask: Quick one: pIC50 of Cn1c(-c2cc3cccnc3n2CC2CC2)nc2cc(C(=O)N3CCC[C@H]4NCC[C@H]43)ccc21 ?
Result: < 5.00

Ask: Quick one: pIC50 of CCn1c(-c2nc3cc(C(=O)N4CCC[C@@H](N)C4)cc(OC)c3n2C[C@H]2C[C@@](C)(OC)C2)cc2ccc(OC)nc21 ?
Result: > 6.00

Ask: Quick one: pIC50 of COc1cc(C(=O)N2CCC[C@@H](N)C2)cc2nc(-c3cc4ccc(C(C)(C)O)nc4n3CC3CC3)n(C)c12 ?
Result: > 6.00

Origin of values: patent US9963448B2
